Experiment: small molecules captured by biotinylated probe aFST – biochemical, small-molecule microarray, fluorescence 635/667, stem cell growth factor project, primary screen (AID 1086);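 further: score merges 667 nm fluorescence with signal-to-noise of each printed compound spot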
Details: higher = more signal

- compound: "CO[C@H]1O[C@H](CO)[C@@H](OC(=O)Nc2ccccc2)[C@@H]2OC(=O)[C@@H](Cc3ccc4ccccc4c3)C/C=C/C[C@H](Cc3ccc4ccccc4c3)C(=O)O[C@@H]12"
  composite z-score: 0.316
- compound: "CC(C)C(=C=CC[C@H](O)c1ccc(CO)o1)CCO"
  composite z-score: 0.164
- compound: "COC(=O)[C@@]1(Cc2ccccc2)[C@H]2c3cc(C(=O)N(C)C)n(Cc4ccc(OC)c(OC)c4)c3C[C@H]2CN1C(=O)c1ccccc1"
  composite z-score: 1.28
- compound: "COc1ccc([Si](C)(C)[C@H]2[C@H](CC(=O)N3CCC[C@H]3CO)O[C@@]3(C(=O)N(Cc4cccc(N5CCOC5=O)c4)c4ccccc43)[C@@H]2C)cc1"
  composite z-score: 0.548
- compound: "C=CCNC(=O)[C@H]1[C@@H]2C(=O)O[C@@H](c3ccccc3)[C@@H](c3ccccc3)N2[C@@H](c2ccc(O)cc2)[C@]12C(=O)Nc1ccc(C#CCCO)cc12"
  composite z-score: 0.33
- compound: "[N-]=[N+]=Nc1ccccc1C[C@@]1(C(=O)N2CCCCC2)N=C(c2ccc(OCCCO)cc2)O[C@@H]1c1ccccc1N=[N+]=[N-]"
  composite z-score: 1.14
- compound: "CO[C@H]1O[C@H](CO)[C@@H](OC(=O)Nc2cccc(F)c2)[C@H](OC(=O)Nc2ccccc2)[C@H]1OC(=O)Nc1ccccc1"
  composite z-score: 0.724
- compound: "CCOC(=O)C[C@H]1[C@H](OC(=O)c2ccc(C(=O)c3ccccc3)cc2)[C@@H](NC(=O)Cc2ccc(OC)cc2)c2cc(OCCCO)ccc2N1C(=O)c1ccc2ccccc2n1"
  composite z-score: 0.612
- compound: "CC(C)N1CC=CC23O[C@@H]4C=CCOC(=O)[C@@H]4[C@H]2C(=O)N(CCCCCO)[C@@H]3C1=O (some centres undefined)"
  composite z-score: -0.308
- compound: "COc1ccc(C(O)C2C=CC3C(=O)N(C)C(=O)C3N2N(c2ccccc2)c2ccccc2)c2ccccc12 (centres undefined)"
  composite z-score: 0.284
- compound: "C=C(C)[C@@H]1CC=C(C(O)C2C=CC3C(=O)NC(=O)C3N2Nc2ccc(Cl)cc2Cl)CC1 (some centres undefined)"
  composite z-score: 1.2
- compound: "CCOC(=O)C1=CC[C@@H](c2ccccc2)N(S(=O)(=O)c2ccc(C)cc2)[C@H]1c1ccc(CC)cc1"
  composite z-score: 0.762
- compound: "C=CCNC(=O)[C@@H]1[C@H]2C(=O)O[C@H](c3ccccc3)[C@H](c3ccccc3)N2[C@H](c2ccc(OCCO)cc2)[C@@]12C(=O)N(C(=O)OCCOC)c1ccc(C#CCC(C(=O)OC)C(=O)OC)cc12"
  composite z-score: 0.88
- compound: "COCCCNC(=O)[C@@]1(CCS(=O)(=O)c2ccccc2)N=C(c2ccc(OCCCO)cc2)O[C@H]1c1ccccc1N=[N+]=[N-]"
  composite z-score: 1.63
